The following compounds are listed with their measured EC50 values.
# EXPERIMENTAL_SYSTEM: UniProt O14842
# PROCEDURE_SUMMARY: IP1 accumulation measurements using the IPOne assay system
# CONDITION_INFO: 1321N1 cells stably expressing human GPR40; stimulation 1 h at 37° C.
The reply should be a number in nM, with the unit left off.

Sample records with EC50:
[
  {
    "COMPOUND": "Cc1nc2ccc(Oc3ccc(F)c4c3CC[C@H]4Oc3ccc4c(c3)OC[C@H]4CC(=O)O)cc2o1 [Example 58]",
    "EXPERIMENTAL_SYSTEM": "UniProt O14842",
    "EC50 [nM]": 3
  },
  {
    "COMPOUND": "Cn1c(Oc2ccc(F)c3c2CC[C@H]3Oc2ccc3c(c2)OC[C@H]3CC(=O)O)nc2ccccc21 [Example 13]",
    "EXPERIMENTAL_SYSTEM": "UniProt O14842",
    "EC50 [nM]": 216
  },
  {
    "COMPOUND": "O=C(O)C[C@@H]1COc2cc(O[C@@H]3CCc4c(Oc5ccc6ncccc6c5)ccc(F)c43)ccc21 [Example 20]",
    "EXPERIMENTAL_SYSTEM": "UniProt O14842",
    "EC50 [nM]": 6
  }
]

Now for a further compound.
Ask: Form field: reported EC50 of N#Cc1ccccc1Oc1ccc(F)c2c1CC[C@H]2Oc1ccc2c(c1)OC[C@H]2CC(=O)O [Example 17]
Reply: 4

###

# EXPERIMENTAL_SYSTEM: human GPR40 receptor (Homo sapiens)
# Sequence (O14842 whole entry): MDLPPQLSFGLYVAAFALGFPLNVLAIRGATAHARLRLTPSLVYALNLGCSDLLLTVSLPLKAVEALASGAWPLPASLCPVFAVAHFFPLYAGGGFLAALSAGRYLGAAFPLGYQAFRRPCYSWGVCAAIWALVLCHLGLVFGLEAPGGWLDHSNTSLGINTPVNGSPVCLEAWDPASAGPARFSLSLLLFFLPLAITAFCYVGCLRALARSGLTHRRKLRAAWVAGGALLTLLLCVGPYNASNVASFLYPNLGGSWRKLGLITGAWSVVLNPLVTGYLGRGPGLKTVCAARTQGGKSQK
# PROCEDURE_SUMMARY: IP1 accumulation measurements using the IPOne assay system
# CONDITION_INFO: 1321N1 cells stably expressing human GPR40; stimulation 1 h at 37° C.
The following compounds are listed with their measured pEC50 values.
Here pEC50 is given on a logarithmic scale as minus log10 of the concentration in mol/L.

Sample records with pEC50:
[
  {
    "RECORD_SMILES": "COc1ccc(Oc2ccc(F)c3c2CC[C@H]3Oc2ccc3c(c2)OC[C@H]3CC(=O)O)c(F)c1",
    "EXPERIMENTAL_SYSTEM": "human GPR40 receptor (Homo sapiens)",
    "MEASURE": "pEC50",
    "QUANTITATIVE_READOUT": 8.22
  },
  {
    "RECORD_SMILES": "Cc1cc(C#N)ccc1Oc1ccc(F)c2c1CC[C@H]2Oc1ccc2c(c1)OC[C@H]2CC(=O)O",
    "EXPERIMENTAL_SYSTEM": "human GPR40 receptor (Homo sapiens)",
    "MEASURE": "pEC50",
    "QUANTITATIVE_READOUT": 8.52
  },
  {
    "RECORD_SMILES": "COc1ccc(Oc2ccc(F)c3c2CC[C@H]3Oc2ccc3c(c2)OC[C@H]3CC(=O)O)cc1",
    "EXPERIMENTAL_SYSTEM": "human GPR40 receptor (Homo sapiens)",
    "MEASURE": "pEC50",
    "QUANTITATIVE_READOUT": 8.52
  },
  {
    "RECORD_SMILES": "COc1cccc(Oc2ccc(F)c3c2CC[C@H]3Oc2ccc3c(c2)OC[C@H]3CC(=O)O)c1",
    "EXPERIMENTAL_SYSTEM": "human GPR40 receptor (Homo sapiens)",
    "MEASURE": "pEC50",
    "QUANTITATIVE_READOUT": 8.22
  },
  {
    "RECORD_SMILES": "O=C(O)C[C@@H]1COc2cc(O[C@@H]3CCc4c(Oc5ccc(OC(F)F)cn5)ccc(F)c43)ccc21",
    "EXPERIMENTAL_SYSTEM": "human GPR40 receptor (Homo sapiens)",
    "MEASURE": "pEC50",
    "QUANTITATIVE_READOUT": 7.89
  }
]

Ask: Form field: reported pEC50 of O=C(O)C[C@@H]1COc2cc(O[C@@H]3CCc4c(Oc5nc6ccccc6o5)ccc(F)c43)ccc21
Reply: 7.89

Ask: What would you report for O=C(O)C[C@@H]1COc2cc(O[C@@H]3CCc4c(Oc5ccccn5)ccc(F)c43)ccc21 ?
Reply: 7.49

Ask: What would you report for Cc1noc2cc(Oc3ccc(F)c4c3CC[C@H]4Oc3ccc4c(c3)OC[C@H]4CC(=O)O)ccc12 ?
Reply: 8.52

Ask: What would you report for COc1ccc(Oc2ccc(F)c3c2CC[C@H]3Oc2ccc3c(c2)OC[C@H]3CC(=O)O)nn1 ?
Reply: 6.86

Ask: What would you report for Cc1cc(Oc2ccc(F)c3c2CC[C@H]3Oc2ccc3c(c2)OC[C@H]3CC(=O)O)ccc1C#N ?
Reply: 8.40

Ask: What would you report for Cc1nc2cc(Oc3ccc(F)c4c3CC[C@H]4Oc3ccc4c(c3)OC[C@H]4CC(=O)O)ccc2s1 ?
Reply: 8.15

Ask: What would you report for COc1cc(Oc2ccc(F)c3c2CC[C@H]3Oc2ccc3c(c2)OC[C@H]3CC(=O)O)ccc1C#N ?
Reply: 8.30

Ask: What would you report for Cc1noc2ccc(Oc3ccc(F)c4c3CC[C@H]4Oc3ccc4c(c3)OC[C@H]4CC(=O)O)cc12 ?
Reply: 8.52

Ask: What would you report for N#Cc1ccc(Oc2ccc(F)c3c2CC[C@H]3Oc2ccc3c(c2)OC[C@H]3CC(=O)O)cc1 ?
Reply: 8.40

Ask: What would you report for O=C(O)C[C@@H]1COc2cc(O[C@@H]3CCc4c(Oc5cccnc5)ccc(F)c43)ccc21 ?
Reply: 7.48

Ask: What would you report for N#Cc1ccc(F)cc1Oc1ccc(F)c2c1CC[C@H]2Oc1ccc2c(c1)OC[C@H]2CC(=O)O ?
Reply: 7.96

Ask: What would you report for N#Cc1cc(OC(F)(F)F)ccc1Oc1ccc(F)c2c1CC[C@H]2Oc1ccc2c(c1)OC[C@H]2CC(=O)O ?
Reply: 7.52

Ask: What would you report for Cc1ccc(Oc2ccc(F)c3c2CC[C@H]3Oc2ccc3c(c2)OC[C@H]3CC(=O)O)c(C#N)c1 ?
Reply: 8.15

Ask: What would you report for O=C(O)C[C@@H]1COc2cc(O[C@@H]3CCc4c(Oc5ccc6ccccc6n5)ccc(F)c43)ccc21 ?
Reply: 7.66

Ask: What would you report for Cc1cc2c(cnn2C)cc1Oc1ccc(F)c2c1CC[C@H]2Oc1ccc2c(c1)OC[C@H]2CC(=O)O ?
Reply: 7.59

Ask: What would you report for N#Cc1ccc(F)c(Oc2ccc(F)c3c2CC[C@H]3Oc2ccc3c(c2)OC[C@H]3CC(=O)O)c1 ?
Reply: 7.54

Ask: What would you report for O=C(O)C[C@@H]1COc2cc(O[C@@H]3CCc4c(Oc5ccc(C(F)(F)F)cn5)ccc(F)c43)ccc21 ?
Reply: 7.59

Ask: What would you report for N#Cc1ccc(Oc2ccc(F)c3c2CC[C@H]3Oc2ccc3c(c2)OC[C@H]3CC(=O)O)c(C#N)c1 ?
Reply: 7.77

Ask: What would you report for O=C(O)C[C@@H]1COc2cc(O[C@@H]3CCc4c(Oc5cccc6cccnc56)ccc(F)c43)ccc21 ?
Reply: 7.68
